assay notes: in vitro
setup conditions: human, Caco-2, pH 7.4
readout kind: Papp A→B at 90 min, 10 μM

Exercise: Please give the documented Papp A→B at 90 min, 10 μM of Cc1cccnc1C1CCCN1Cc1nc2cccc(N3CCN(C4CC4)CC3)c2[nH]1 (stereo not shown) [Compound I-31]
Solution: 10 to 30 ×10⁻⁶ cm/s

Exercise: For Cc1cccnc1C1CCCCN1Cc1ccccc1-n1cccn1 (stereo not shown) [Compound I-2] , write its Papp A→B at 90 min, 10 μM.
Solution: > 30 ×10⁻⁶ cm/s

Exercise: Give Papp A→B at 90 min, 10 μM for Cc1cccnc1C1CCCN1Cc1ccccn1 (stereo not shown) [Compound I-39]
Solution: 10 to 30 ×10⁻⁶ cm/s

Exercise: Report Papp A→B at 90 min, 10 μM for Cc1cccnc1C1CCCN1Cc1ncccc1N1CCN(C)CC1 (stereo not shown) [Compound I-53]
Solution: 0.1 to 10 ×10⁻⁶ cm/s

Exercise: Identify measured Papp A→B at 90 min, 10 μM corresponding to Cc1cccnc1C1CCCN1Cc1nc2ccccc2n1C1CCN(C)CC1 (stereo not shown) [Compound I-33]
Solution: 10 to 30 ×10⁻⁶ cm/s

Exercise: Read off the recorded Papp A→B at 90 min, 10 μM for Cc1cccnc1C1CCCCN1Cc1cn2c(N3CCN(C)CC3)cccc2n1 (stereo not shown) [Compound I-1]
Solution: 0.1 to 10 ×10⁻⁶ cm/s

Exercise: Fill in reported Papp A→B at 90 min, 10 μM for this entry: c1ccc(C2CCCN2Cc2nc3ccccn3c2-c2ccncc2)nc1 (stereo not shown) [Compound I-80]
Solution: 10 to 30 ×10⁻⁶ cm/s

Exercise: State its Papp A→B at 90 min, 10 μM for this molecule: Cc1cccnc1C1CCCN1Cc1nc2cccc(N3CCN(C)CC3)n2c1F (stereo not shown) [Compound I-34]
Solution: 0.1 to 10 ×10⁻⁶ cm/s

Exercise: Specify reported Papp A→B at 90 min, 10 μM for the molecule shown: Cc1cccnc1C1CCCN1Cc1cn2c(CCC#N)cccc2n1 (stereo not shown) [Compound I-83]
Solution: 0.1 to 10 ×10⁻⁶ cm/s

Exercise: Look up and report measured Papp A→B at 90 min, 10 μM for this entry: FC(F)(F)CN1CCN(c2c(CN3CCCC3c3ccccn3)nc3ccccn23)CC1 (stereo not shown) [Compound I-98]
Solution: > 30 ×10⁻⁶ cm/s

Exercise: Quick one: give measured Papp A→B at 90 min, 10 μM for Cc1cccnc1C1CCCN1Cc1nc2cccc(N3CCN4CCCC4C3)c2[nH]1 (stereo not shown) [Compound I-48]
Solution: 0.1 to 10 ×10⁻⁶ cm/s

Exercise: # return recorded Papp A→B at 90 min, 10 μM for input Cc1cccnc1C1CCCN1Cc1nccn1CCCCN1CCOCC1 (stereo not shown) [Compound I-111]
Solution: 0.1 to 10 ×10⁻⁶ cm/s

Exercise: For the molecule CN1CCN(c2cccc3[nH]c(CN4CCCC4c4ncccc4Cl)nc23)CC1 (stereo not shown) [Compound I-26] , give its reported Papp A→B at 90 min, 10 μM.
Solution: 10 to 30 ×10⁻⁶ cm/s

Exercise: Give the value of Papp A→B at 90 min, 10 μM reported for the following: Cc1cccnc1C1CCCN1Cc1nc2cccc(N3CCN(C)CC3)n2c1CO (stereo not shown) [Compound I-8]
Solution: 0.1 to 10 ×10⁻⁶ cm/s

Exercise: Look up and report measured Papp A→B at 90 min, 10 μM for this entry: Cc1cccnc1C1CCCN1Cc1nccn1CC1CCN(C)CC1 (stereo not shown) [Compound I-52]
Solution: 0.1 to 10 ×10⁻⁶ cm/s

Exercise: State, in one line, measured Papp A→B at 90 min, 10 μM of CN1CC=C(c2c(CN3CCCC3c3ccccn3)nc3ccccn23)CC1 (stereo not shown) [Compound I-79]
Solution: 0.1 to 10 ×10⁻⁶ cm/s

Exercise: Consider the molecule c1ccc(C2CCCN2Cc2ncccc2-n2ccnc2)nc1 (stereo not shown) [Compound I-75] . State its measured Papp A→B at 90 min, 10 μM.
Solution: 10 to 30 ×10⁻⁶ cm/s

Exercise: Hello, please tell me recorded Papp A→B at 90 min, 10 μM for this one: CN1CCN(c2cccc3nc(CN4CCCC4c4ccccn4)[nH]c23)CC1 (stereo not shown) [Compound I-44]
Solution: 10 to 30 ×10⁻⁶ cm/s

Exercise: Could you please provide reported Papp A→B at 90 min, 10 μM for CN1CCN(c2cccc3nc(CN4CCCC4c4ncccc4Cl)cn23)CC1 (stereo not shown) [Compound I-27] ? Thanks!
Solution: 0.1 to 10 ×10⁻⁶ cm/s

Hello, the source for this data is patent US11332470B2, in case you need it.
